Molecular target: UniProt:O60658
Sequence (O60658 whole entry): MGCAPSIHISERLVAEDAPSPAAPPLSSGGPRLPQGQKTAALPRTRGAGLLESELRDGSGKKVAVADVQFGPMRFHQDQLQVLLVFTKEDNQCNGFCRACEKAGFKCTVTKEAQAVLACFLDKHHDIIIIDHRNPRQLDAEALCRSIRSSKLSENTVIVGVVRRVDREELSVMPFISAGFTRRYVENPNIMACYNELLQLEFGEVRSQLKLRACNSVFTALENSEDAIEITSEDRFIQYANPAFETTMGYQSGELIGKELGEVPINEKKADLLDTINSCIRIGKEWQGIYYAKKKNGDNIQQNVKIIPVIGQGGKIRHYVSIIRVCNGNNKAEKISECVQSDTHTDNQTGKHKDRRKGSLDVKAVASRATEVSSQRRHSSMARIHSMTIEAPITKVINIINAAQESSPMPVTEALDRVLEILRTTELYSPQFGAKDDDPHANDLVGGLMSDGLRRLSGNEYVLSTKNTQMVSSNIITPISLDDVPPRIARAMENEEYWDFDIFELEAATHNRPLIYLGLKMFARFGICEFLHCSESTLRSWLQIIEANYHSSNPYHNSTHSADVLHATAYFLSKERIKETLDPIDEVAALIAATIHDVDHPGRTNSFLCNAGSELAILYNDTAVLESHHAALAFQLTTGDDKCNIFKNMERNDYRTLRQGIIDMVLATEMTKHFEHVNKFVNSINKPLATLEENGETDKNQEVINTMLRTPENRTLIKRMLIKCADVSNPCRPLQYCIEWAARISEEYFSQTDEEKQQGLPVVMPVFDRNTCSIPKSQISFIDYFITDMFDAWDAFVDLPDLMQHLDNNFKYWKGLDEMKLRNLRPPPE
QUANTITY_NAME: Ki

input: Find the recorded Ki belonging to `COCCOc1cc(C)c2nc3[nH]nc(C)c3c(CN3CCCOCC3)c2c1` and report it.
output: > 10 µM

###

Target: High affinity cGMP-specific 3',5'-cyclic phosphodiesterase 9A (Homo sapiens, UniProt O76083)
Sequence (O76083 whole entry): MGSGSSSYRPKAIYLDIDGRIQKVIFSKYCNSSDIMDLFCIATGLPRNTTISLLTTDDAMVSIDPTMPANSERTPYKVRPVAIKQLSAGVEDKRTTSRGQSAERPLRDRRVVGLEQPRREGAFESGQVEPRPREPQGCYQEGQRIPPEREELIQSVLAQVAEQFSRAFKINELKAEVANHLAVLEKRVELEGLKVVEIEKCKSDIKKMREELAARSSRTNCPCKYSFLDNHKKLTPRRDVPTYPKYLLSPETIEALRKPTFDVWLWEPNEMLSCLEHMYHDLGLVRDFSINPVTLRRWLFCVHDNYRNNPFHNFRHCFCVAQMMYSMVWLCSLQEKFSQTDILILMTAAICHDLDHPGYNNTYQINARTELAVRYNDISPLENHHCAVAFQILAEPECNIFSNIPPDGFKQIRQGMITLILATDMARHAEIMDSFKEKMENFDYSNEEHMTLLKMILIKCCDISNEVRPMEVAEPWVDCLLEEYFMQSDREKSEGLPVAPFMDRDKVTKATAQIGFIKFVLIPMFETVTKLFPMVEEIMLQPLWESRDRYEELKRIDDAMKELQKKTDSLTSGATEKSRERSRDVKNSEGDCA
pKi: −log10 of the molar value.
QUANTITY_NAME: pKi

input: Find the recorded pKi belonging to `COCCOc1cc(C)c2nc3[nH]nc(C)c3c(CN3CCCOCC3)c2c1` and report it.
output: < 5.00

###

Biological target: Dual specificity calcium/calmodulin-dependent 3',5'-cyclic nucleotide phosphodiesterase 1A (Homo sapiens, UniProt P54750)
Sequence (P54750 whole entry): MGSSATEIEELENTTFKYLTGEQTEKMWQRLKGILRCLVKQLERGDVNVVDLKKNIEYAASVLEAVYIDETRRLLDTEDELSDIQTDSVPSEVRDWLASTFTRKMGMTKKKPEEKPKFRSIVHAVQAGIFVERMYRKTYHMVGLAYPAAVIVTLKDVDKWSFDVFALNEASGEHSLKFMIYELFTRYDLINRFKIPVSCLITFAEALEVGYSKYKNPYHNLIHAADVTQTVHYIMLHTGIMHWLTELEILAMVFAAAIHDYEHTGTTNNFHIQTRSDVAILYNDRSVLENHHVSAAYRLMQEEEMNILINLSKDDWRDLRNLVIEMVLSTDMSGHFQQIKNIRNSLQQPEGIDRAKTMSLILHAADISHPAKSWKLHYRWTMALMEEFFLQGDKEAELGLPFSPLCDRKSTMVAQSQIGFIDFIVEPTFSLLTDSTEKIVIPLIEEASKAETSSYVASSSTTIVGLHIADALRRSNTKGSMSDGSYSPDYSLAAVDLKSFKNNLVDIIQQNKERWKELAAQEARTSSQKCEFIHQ
Experiment: Displacement of [3H]cAMP from PDE1A3 by competitive binding assay
QUANTITY_NAME: Ki

input: Find the recorded Ki belonging to `COCCOc1cc(C)c2nc3[nH]nc(C)c3c(CN3CCCOCC3)c2c1` and report it.
output: > 10 µM

###

Assay: Clearance in rat hepatocytes assessed per million cells
Assay type: ADME, cell-based, Hepatocyte
Settings: read-out: CLH
QUANTITY_NAME: hepatocyte CLint

input: Find the recorded hepatocyte CLint belonging to `COc1cc(C)c2nc3[nH]nc(C)c3c(CN3CCCOCC3)c2c1` and report it.
output: < 1 µL/min/1e6 cells

###

Assay: Protein binding in rat
Format: ADME, organism-based
Conditions: plasma, read-out: PB (converted)
QUANTITY_NAME: fraction unbound
Field format: numeric only.

input: Find the recorded fraction unbound belonging to `COc1cc(C)c2nc3[nH]nc(C)c3c(CN3CCCOCC3)c2c1` and report it.
output: 0.03
